From: ChEMBL document CHEMBL1134509

Each entry below carries its recorded IC50 ratio.
biological target: Delta-type opioid receptor (Mus musculus); test: Opioid antagonist potency, determined in mouse vas deferens (MVD) preparation, using DADLE (delta-opioid) as agonist, expressed as IC50 ratio; format: functional
Sequence (P32300 whole entry): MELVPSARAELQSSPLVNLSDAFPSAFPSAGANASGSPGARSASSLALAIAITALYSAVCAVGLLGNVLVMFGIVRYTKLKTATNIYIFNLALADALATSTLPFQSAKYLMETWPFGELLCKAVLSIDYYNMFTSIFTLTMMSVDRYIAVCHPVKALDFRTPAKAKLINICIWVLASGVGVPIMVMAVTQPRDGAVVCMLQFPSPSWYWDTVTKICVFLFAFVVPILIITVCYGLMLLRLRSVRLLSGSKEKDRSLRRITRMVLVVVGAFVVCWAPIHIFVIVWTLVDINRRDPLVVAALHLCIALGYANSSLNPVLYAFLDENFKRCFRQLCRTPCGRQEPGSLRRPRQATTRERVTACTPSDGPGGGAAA

structure.smiles | IC50 ratio
Oc1ccc2c3c1O[C@H]1c4[nH]c5c(c4C[C@@]4(O)[C@@H](C2)N(CC2CC2)CC[C@]314)C[C@@]1(O)[C@H]2Cc3ccc(O)c4c3[C@@]1(CCN2CC1CC1)[C@H]5O4 | 10.4
N=C(N)Nc1ccc2c3c([nH]c2c1)[C@@H]1Oc2c(O)ccc4c2[C@@]12CCN(CC1CC1)[C@H](C4)[C@]2(O)C3 | 0.2
N=C(N)Nc1cccc2c3c([nH]c12)[C@@H]1Oc2c(O)ccc4c2[C@@]12CCN(CC1CC1)[C@H](C4)[C@]2(O)C3 | 105
N=C(N)Nc1cccc2[nH]c3c(c12)C[C@@]1(O)[C@H]2Cc4ccc(O)c5c4[C@@]1(CCN2CC1CC1)[C@H]3O5 | 1.4

###

Listing: pKi of selected compounds
target: Kappa-type opioid receptor (Rattus norvegicus, UniProt P34975); test: Effect on binding to wild-type opioid receptor kappa 1 using [3H]diprenorphine in transiently expressed […] HEK293 cells; format: cell-based
Sequence (P34975 whole entry): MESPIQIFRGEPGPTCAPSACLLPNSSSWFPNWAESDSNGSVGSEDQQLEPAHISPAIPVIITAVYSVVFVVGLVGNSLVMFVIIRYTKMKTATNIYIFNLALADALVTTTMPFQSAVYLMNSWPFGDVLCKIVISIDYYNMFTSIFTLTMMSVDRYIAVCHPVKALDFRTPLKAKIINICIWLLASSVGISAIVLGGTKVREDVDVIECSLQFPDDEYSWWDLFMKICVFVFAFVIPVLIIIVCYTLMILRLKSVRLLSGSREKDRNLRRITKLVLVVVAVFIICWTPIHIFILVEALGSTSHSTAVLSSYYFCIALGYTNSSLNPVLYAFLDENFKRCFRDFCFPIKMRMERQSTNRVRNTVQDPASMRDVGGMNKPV
pKi: −log10 of the molar value.

structure.smiles | measured.on | pKi
N=C(N)Nc1cccc2c3c([nH]c12)[C@@H]1Oc2c(O)ccc4c2[C@@]12CCN(CC1CC1)[C@H](C4)[C@]2(O)C3 | Kappa-type opioid receptor (Rattus norvegicus, UniProt P34975) | 7.49
N=C(N)Nc1ccc2[nH]c3c(c2c1)C[C@@]1(O)[C@H]2Cc4ccc(O)c5c4[C@@]1(CCN2CC1CC1)[C@H]3O5 | Kappa-type opioid receptor (Rattus norvegicus, UniProt P34975) | 9.68
N=C(N)Nc1ccc2c3c([nH]c2c1)[C@@H]1Oc2c(O)ccc4c2[C@@]12CCN(CC1CC1)[C@H](C4)[C@]2(O)C3 | Kappa-type opioid receptor (Rattus norvegicus, UniProt P34975) | 8.95

###

target: Delta-type opioid receptor (Mus musculus); assay: Binding affinity towards mouse delta-opioid receptor was determined using [3H]diprenorphine as radioligand
pKi: −log10 of the molar value.

structure.smiles | measured.on | pKi
N=C(N)Nc1cccc2[nH]c3c(c12)C[C@@]1(O)[C@H]2Cc4ccc(O)c5c4[C@@]1(CCN2CC1CC1)[C@H]3O5 | Delta-type opioid receptor (Mus musculus) | < 6.00

###

target: Kappa-type opioid receptor (Rattus norvegicus, UniProt P34975); experiment: Binding affinity towards rat opioid receptor kappa 1 was determined using [3H]diprenorphine radioligand
pKi: −log10 of the molar value.

structure.smiles | pKi
N=C(N)Nc1cccc2[nH]c3c(c12)C[C@@]1(O)[C@H]2Cc4ccc(O)c5c4[C@@]1(CCN2CC1CC1)[C@H]3O5 | < 6.00

###

# key: entry, value: Ki
target: Kappa-type opioid receptor (Rattus norvegicus, UniProt P34975, E297A); experiment: Effect on binding to kappa(Glu297Ala) opioid receptor, using [3H]diprenorphine in transiently expressed […] HEK293 cells
Sequence (P34975 whole entry E297A): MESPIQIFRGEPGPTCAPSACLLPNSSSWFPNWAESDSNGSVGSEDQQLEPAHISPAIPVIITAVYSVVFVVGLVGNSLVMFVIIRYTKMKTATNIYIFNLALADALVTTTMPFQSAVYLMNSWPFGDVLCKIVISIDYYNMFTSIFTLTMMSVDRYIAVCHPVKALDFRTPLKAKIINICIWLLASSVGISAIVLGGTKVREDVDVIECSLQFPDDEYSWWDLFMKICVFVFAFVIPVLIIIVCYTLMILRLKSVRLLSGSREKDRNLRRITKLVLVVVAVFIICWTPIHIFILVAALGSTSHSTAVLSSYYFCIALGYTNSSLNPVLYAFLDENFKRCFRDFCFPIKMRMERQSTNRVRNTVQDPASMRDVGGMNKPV

structure.smiles | value.unit | Ki
N=C(N)Nc1cccc2c3c([nH]c12)[C@@H]1Oc2c(O)ccc4c2[C@@]12CCN(CC1CC1)[C@H](C4)[C@]2(O)C3 | nM | 47.3
N=C(N)Nc1ccc2c3c([nH]c2c1)[C@@H]1Oc2c(O)ccc4c2[C@@]12CCN(CC1CC1)[C@H](C4)[C@]2(O)C3 | nM | 12.3
